# assay_details: Spasmolytic effect (inhibition of tetracor spasms)
# Type: in vivo
# condition_summary: inhibition of tetracor spasms
Catalogue of ED50 values
measure: ED50 (mg/kg)

INSERT INTO assay_data (compound, unit_info, observed_measurement) VALUES
  ('CSc1nc2n(CCCN3CCOCC3)c3c(c(=O)n2n1)CN(Cc1ccccc1)CC3 [Example 19g]', 'mg/kg', 100),
  ('O=c1c2c(n(CCN3CCCCC3)c3nc(N4CCOCC4)nn13)CN(Cc1ccccc1)CC2 [Example 19c]', 'mg/kg', 150),
  ('CN1C(=O)OC(C)(C)C1=O [Trimetadion, reference compound]', 'mg/kg', 490),
  ('O=c1c2c(n(CCN3CCCC3)c3nc(N4CCOCC4)nn13)CN(Cc1ccccc1)CC2', 'mg/kg', 155),
  ('O=c1c2c(n(CCN3CCCCC3)c3nc(N4CCOCC4)nn13)CCN(Cc1ccccc1)C2', 'mg/kg', 150);

====

# assay_details: Spasmolytic effect (inhibition of tetracor spasms)
# Assay type: in vivo
# condition_summary: T.I.=therapeutical index; spasmolytic effect
measure: Spasmolytic effect T.I. (therapeutical index)

INSERT INTO results (compound, observed_measurement) VALUES
  ('CSc1nc2n(CCCN3CCOCC3)c3c(c(=O)n2n1)CN(Cc1ccccc1)CC3 [Example 19g]', 8.5),
  ('O=c1c2c(n(CCN3CCCC3)c3nc(N4CCOCC4)nn13)CN(Cc1ccccc1)CC2', 6.5),
  ('O=c1c2c(n(CCN3CCCCC3)c3nc(N4CCOCC4)nn13)CCN(Cc1ccccc1)C2', 6.6),
  ('O=c1c2c(n(CCN3CCCCC3)c3nc(N4CCOCC4)nn13)CN(Cc1ccccc1)CC2 [Example 19c]', 6.7);
